The values you see were collected from patent US10954216B2.

system: BMP signal in MDA-231-D-BREFluc/Rluc cells; assay: BMP signal inhibitory effect (AlphaScreen SureFire SMAD1 p-Ser463/465, BMP-6 stimulation); type: cell-based; details: BMP-6 stimulated MDA-231-D-BREFluc/Rluc cells, phospho-SMAD1 AlphaScreen; read-out: IC50
Listing: IC50 of selected compounds

compound: CCn1cc(-c2ccnc(Nc3ccc(N4CCN(C5CC5)CC4)cc3)n2)c(-c2cccnc2)n1 [Example 32]
measurement.unit: nM
IC50: 21.3
//
compound: CCn1cc(-c2ccnc(Nc3ccc(C(=O)N(C)C4CCN(C)CC4)cc3)n2)c(-c2cccnc2)n1 [Example 4]
measurement.unit: nM
IC50: 16.3
//
compound: CCn1cc(-c2ccnc(Nc3ccc(N4CCN(CC(=O)N5CCCCC5)CC4)cc3)n2)c(-c2cccnc2)n1 [Example 31]
measurement.unit: nM
IC50: 19.7
//
compound: CCn1cc(-c2ccnc(Nc3ccc(N4CCNCC4)c(F)c3)n2)c(-c2cccnc2)n1 [Example 152]
measurement.unit: nM
IC50: 7.2
//
compound: CCn1cc(-c2ccnc(Nc3ccc(C4CCN(C5COC5)CC4)cc3)n2)c(-c2cccnc2)n1 [Example 11]
measurement.unit: nM
IC50: 29.4
//
compound: CCn1cc(-c2ccnc(Nc3ccc4c(c3)CCN(CCOC)C4)n2)c(-c2cccnc2)n1 [Example 126]
measurement.unit: nM
IC50: 4
//
compound: CCn1cc(-c2ccnc(Nc3ccc(C4CCCN(CCOC)C4)cc3)n2)c(-c2cccnc2)n1 (centres unmarked) [Example 100]
measurement.unit: nM
IC50: 18.6
//
compound: CCn1cc(-c2ccnc(Nc3ccc(C4CCN(C(=O)CO)CC4)cc3)n2)c(-c2cccnc2)n1 [Example 59]
measurement.unit: nM
IC50: 25.2

====

Listed next: entries and their corresponding IC50.
system: BMP signal in MDA-231-D-BREFluc/Rluc cells; assay: BMP signal inhibitory effect (AlphaScreen SureFire SMAD1 p-Ser463/465, BMP-6 stimulation); assay type: cell-based; conditions: BMP-6 stimulated MDA-231-D-BREFluc/Rluc cells, phospho-SMAD1 AlphaScreen; read-out: IC50

molecule: COCCn1cc(-c2ccnc(Nc3ccc(N4CCN(CC5CC5)CC4)cc3)n2)c(-c2cccnc2)n1
IC50: 15.9 nM
--
molecule: CCn1cc(-c2ccnc(Nc3ccc(N4CCC(N5CCN(C)CC5)CC4)cc3)n2)c(-c2cccnc2)n1
IC50: 11.8 nM
--
molecule: FC(F)(F)Cn1cc(-c2ccnc(Nc3ccc(N4CCNCC4)cc3)n2)c(-c2cccnc2)n1
IC50: 13.3 nM
--
molecule: CCn1cc(-c2ccnc(Nc3ccc(N4CCC(C(C)(C)N)CC4)cc3)n2)c(-c2cccnc2)n1
IC50: 14.8 nM
--
molecule: CCn1cc(-c2ccnc(Nc3ccc(N4CCN(CC5COC5)CC4)cc3)n2)c(-c2cccnc2)n1
IC50: 20 nM
--
molecule: CCn1cc(-c2ccnc(Nc3cccc(CN4CCOCC4)c3)n2)c(-c2cccnc2)n1
IC50: 11.9 nM
--
molecule: CCn1cc(-c2ccnc(Nc3ccc4c(c3)CN(CC3CCCO3)CC4)n2)c(-c2cccnc2)n1 (centres unmarked)
IC50: 5.5 nM
--
molecule: CCn1cc(-c2ccnc(Nc3ccc(N4CCN(CCOC)CC4)c(C#N)c3)n2)c(-c2cccnc2)n1
IC50: 14.3 nM

====

biological target: human ALK6 (Homo sapiens (Human), UniProt O00238); assay: ALK6 enzyme inhibitory effect (33P-ATP kinase assay, Reaction Biology); type: biochemical; details: ALK6, test compound 300 nM; read-out: Inhibition rate at 300 nM
Sequence (O00238 14-502): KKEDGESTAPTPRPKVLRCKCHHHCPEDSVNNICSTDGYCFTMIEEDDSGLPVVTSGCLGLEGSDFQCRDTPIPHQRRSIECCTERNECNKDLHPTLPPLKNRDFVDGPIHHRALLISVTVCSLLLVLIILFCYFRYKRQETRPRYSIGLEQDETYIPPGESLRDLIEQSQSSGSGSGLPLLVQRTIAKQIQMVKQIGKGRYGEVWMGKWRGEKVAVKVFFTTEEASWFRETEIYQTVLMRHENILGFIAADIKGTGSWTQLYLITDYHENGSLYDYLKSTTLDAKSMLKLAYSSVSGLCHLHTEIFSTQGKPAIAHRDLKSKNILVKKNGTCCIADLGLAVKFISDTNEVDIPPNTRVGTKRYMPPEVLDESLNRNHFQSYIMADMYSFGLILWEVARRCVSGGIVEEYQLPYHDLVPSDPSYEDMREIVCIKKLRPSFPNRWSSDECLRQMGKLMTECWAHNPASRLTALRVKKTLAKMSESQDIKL
// inhibition at 0.3 µM lookup, one value per entry
reported.metric: inhibition at 0.3 µM (%)

smiles.entry: O=C(c1ccc(Nc2nccc(-c3cn(Cc4ccccc4)nc3-c3cccnc3)n2)cc1)N1CCNCC1
observed.result: 83.8
--
smiles.entry: CCn1cc(-c2ccnc(Nc3ccc4c(c3)CCN(C(C)=O)C4)n2)c(-c2cccnc2)n1
observed.result: 92.9
--
smiles.entry: c1cncc(-c2nn(C3COC3)cc2-c2ccnc(Nc3ccc(N4CCNCC4)cc3)n2)c1
observed.result: 85.3
--
smiles.entry: CCn1cc(-c2ccnc(Nc3cccc(CN4CCOCC4)c3)n2)c(-c2cccnc2)n1
observed.result: 78

====

biological target: human ALK6 (Homo sapiens (Human), UniProt O00238); assay: ALK6 enzyme inhibitory effect (33P-ATP kinase assay, Reaction Biology); type: biochemical; details: ALK6, test compound 370 nM (asterisk footnote); read-out: inhibition rate at 370 nM
Quick reference: inhibition at 0.37 µM of the listed items.
reported.metric: inhibition at 0.37 µM (%)

compound: c1cncc(-c2n[nH]cc2-c2ccnc(Nc3ccc(OCCN4CCOCC4)cc3)n2)c1 [Example 25]
experimental.target: human ALK6 (Homo sapiens (Human), UniProt O00238)
reported.metric: inhibition at 0.37 µM
observed.result: 47.7
//
compound: c1cncc(-c2nn(C3COC3)cc2-c2ccnc(Nc3ccc(N4CCN(C5COC5)CC4)cc3)n2)c1 [Example 101]
experimental.target: human ALK6 (Homo sapiens (Human), UniProt O00238)
reported.metric: inhibition at 0.37 µM
observed.result: 70.4
//
compound: CCn1cc(-c2ccnc(Nc3ccc(N4CCNCC4)cc3)n2)c(-c2cccnc2)n1 [Example 151]
experimental.target: human ALK6 (Homo sapiens (Human), UniProt O00238)
reported.metric: inhibition at 0.37 µM
observed.result: 93
//
compound: CN1CCN(c2ccc(Nc3nccc(-c4c[nH]nc4-c4cccnc4)n3)cc2)CC1 [Example 127]
experimental.target: human ALK6 (Homo sapiens (Human), UniProt O00238)
reported.metric: inhibition at 0.37 µM
observed.result: 82.8
//
compound: CCn1cc(-c2ccnc(Nc3ccc(N4CCNCC4)nc3)n2)c(-c2cccnc2)n1 [Example 155]
experimental.target: human ALK6 (Homo sapiens (Human), UniProt O00238)
reported.metric: inhibition at 0.37 µM
observed.result: 86.5

====

tested on: BMP signal in MDA-231-D-BREFluc/Rluc cells; assay: BMP signal inhibitory effect (AlphaScreen SureFire SMAD1 p-Ser463/465, BMP-6 stimulation); assay type: cell-based; conditions: BMP-6 stimulated MDA-231-D-BREFluc/Rluc cells, phospho-SMAD1 AlphaScreen; read-out: IC50
pIC50: −log10 of the molar value.
Quick rule for you: pIC50 at 8 or higher means True, lower means False.

molecule: CCn1cc(-c2ccnc(Nc3ccc(N4CCN(CC5CC(C)(C)O5)CC4)cc3)n2)c(-c2cccnc2)n1 (centres unmarked) [Example 96]
label.class: False
//
molecule: CCn1cc(-c2ccnc(Nc3ccc4c(c3)CCN(CC3CCCO3)C4)n2)c(-c2cccnc2)n1 (centres unmarked) [Example 89]
label.class: True
//
molecule: CCn1cc(-c2ccnc(Nc3ccc(N4CCNCC4)cc3)n2)c(-c2cccnc2)n1 [Example 151]
label.class: True
//
molecule: CCn1cc(-c2ccnc(Nc3ccc(N4CCN(CC5(C)COC5)CC4)cc3)n2)c(-c2cccnc2)n1 [Example 98]
label.class: False
//
molecule: COCCn1cc(-c2ccnc(Nc3ccc(OC4CN(CC(C)(C)O)C4)cc3)n2)c(-c2cccnc2)n1 [Example 107]
label.class: False
//
molecule: CCn1cc(-c2ccnc(Nc3ccc(N4CCN(CCOC)CC4)nc3)n2)c(-c2cccnc2)n1 [Example 84]
label.class: False

====

test system: BMP signal in MDA-231-D-BREFluc/Rluc cells; assay: BMP signal inhibitory effect (AlphaScreen SureFire SMAD1 p-Ser463/465, BMP-6 stimulation); format: cell-based; settings: BMP-6 stimulated MDA-231-D-BREFluc/Rluc cells, phospho-SMAD1 AlphaScreen; read-out: IC50
pIC50: −log10 of the molar value.

molecule: COCCN1CCC(c2ccc(Nc3nccc(-c4cn(C5COC5)nc4-c4cccnc4)n3)cc2)CC1
pIC50: 8.18
//
molecule: CCn1cc(-c2ccnc(Nc3ccc(C(=O)N4CCN(c5ccc(F)cc5)CC4)cc3)n2)c(-c2cccnc2)n1
pIC50: 7.57
//
molecule: CCn1cc(-c2ccnc(Nc3ccc(N4CCN(CC(=O)O)CC4)cc3)n2)c(-c2cccnc2)n1
pIC50: 7.32
//
molecule: CCn1cc(-c2ccnc(Nc3ccc(C(=O)N4CCN(C5CCCCC5)CC4)cc3)n2)c(-c2cccnc2)n1
pIC50: 8.21
//
molecule: CCn1cc(-c2ccnc(Nc3ccc(N4CCN(C(=O)CO)CC4)cc3)n2)c(-c2cccnc2)n1
pIC50: 7.43
//
molecule: CCn1cc(-c2ccnc(Nc3cnn(C4CCOCC4)c3)n2)c(-c2cccnc2)n1
pIC50: 7.66
//
molecule: COCCn1cc(-c2ccnc(Nc3ccc(C4CCN(C5COC5)CC4)cc3)n2)c(-c2cccnc2)n1
pIC50: 7.57
//
molecule: CN1CCc2cc(Nc3nccc(-c4cn(C5COC5)nc4-c4cccnc4)n3)ccc2C1
pIC50: 8.17
//
molecule: CCn1cc(-c2ccnc(Nc3ccc4c(c3)CCN(CC(N)=O)C4)n2)c(-c2cccnc2)n1
pIC50: 7.67
//
molecule: CCn1cc(-c2ccnc(Nc3ccc(-c4cccnc4)cc3)n2)c(-c2cccnc2)n1
pIC50: 7.73
//
molecule: CCn1cc(-c2ccnc(Nc3ccc(CCN4CCNCC4)cc3)n2)c(-c2cccnc2)n1
pIC50: 7.82
//
molecule: CCn1cc(-c2ccnc(Nc3ccc(N4CCOCC4)cc3)n2)c(-c2cccnc2)n1
pIC50: 7.72
//
molecule: N#Cc1cccc(Cn2cc(-c3ccnc(Nc4ccc(N5CCNCC5)cc4)n3)c(-c3cccnc3)n2)c1
pIC50: 7.61
//
molecule: CCn1cc(-c2ccnc(Nc3ccc4c(c3)CNC4)n2)c(-c2cccnc2)n1
pIC50: 8.14
//
molecule: CCn1cc(-c2ccnc(Nc3ccc(N4CCN(CC5CCOC5)CC4)cc3)n2)c(-c2cccnc2)n1 (stereo not shown)
pIC50: 7.82
//
molecule: CCn1cc(-c2ccnc(Nc3ccc(-c4cnn(CC(F)F)c4)cc3)n2)c(-c2cccnc2)n1
pIC50: 7.53
